Assay: activity coefficient (dimensionless); of the first substance listed, at infinite dilution; xn = mol fraction of the nth substance listed
Details: 322.65 K; Liquid; Chromatography; x1 = 0
measure: activity coefficient
No unit in the answer, only the number.

## Task Form field: reported activity coefficient of Cc1ccc(C)cc1 [1,4-dimethylbenzene] + CCCCCC[N+](C)(C)C.O=S(=O)([N-]S(=O)(=O)C(F)(F)F)C(F)(F)F
## Result 1.82

## Task Form field: reported activity coefficient of CC(C)CC(C)(C)C [2,2,4-trimethylpentane] + CCn1cc[n+](C)c1.N#CN=C=[N-]
## Result 202

## Task Form field: reported activity coefficient of C1CCCCC1 [cyclohexane] + CCn1cc[n+](C)c1.N#CN=C=[N-]
## Result 46

## Task Form field: reported activity coefficient of CC(C)CC(C)(C)C [2,2,4-trimethylpentane] + CCCCCC[N+](C)(C)C.O=S(=O)([N-]S(=O)(=O)C(F)(F)F)C(F)(F)F
## Result 13.1

====

Assay: activity coefficient (dimensionless); of the first substance listed, at infinite dilution; xn = mol fraction of the nth substance listed
Settings: 343.15 K; Liquid; Chromatography; x1 = 0
The reader will find reported activity coefficient values listed item by item below.
No unit in the answer, only the number.

compound: CCOCC [diethyl ether] + CCn1cc[n+](C)c1.N#CN=C=[N-]
activity coefficient: 9.56
//
compound: CCc1ccccc1 [ethylbenzene] + CCn1cc[n+](C)c1.N#CN=C=[N-]
activity coefficient: 7.29
//
compound: C#CCCCC [1-hexyne] + CCn1cc[n+](C)c1.N#CN=C=[N-]
activity coefficient: 8.44
//
compound: CCCCCCCCCCCC [dodecane] + CCn1cc[n+](C)c1.N#CN=C=[N-]
activity coefficient: 1180

Could you now consider this next compound?
## Task Form field: reported activity coefficient of CCCCO [butan-1-ol] + CCn1cc[n+](C)c1.N#CN=C=[N-]
## Result 1.4

====

Test: activity coefficient (dimensionless); of the first substance listed, at infinite dilution; xn = mol fraction of the nth substance listed
Conditions: 322.65 K; Liquid; Chromatography; x1 = 0
Param threshold (3) applies to activity coefficient; output fulfilled when value >= threshold, not fulfilled when value < threshold.

Take a look at these entries with their results.
compound: CCC(=O)CC [pentan-3-one] + CCn1cc[n+](C)c1.N#CN=C=[N-]
classLabel: not fulfilled
--
compound: CC(C)OC(C)C [diisopropyl ether] + CCCCCC[N+](C)(C)C.O=S(=O)([N-]S(=O)(=O)C(F)(F)F)C(F)(F)F
classLabel: fulfilled
--
compound: CCCCO [butan-1-ol] + CCCCCC[N+](C)(C)C.O=S(=O)([N-]S(=O)(=O)C(F)(F)F)C(F)(F)F
classLabel: not fulfilled

## Task # check: activity coefficient of C=CCCCC [hex-1-ene] + CCn1cc[n+](C)c1.N#CN=C=[N-] is greater than or equal to 3
## Result fulfilled

## Task # check: activity coefficient of CCCCCCCCCC [decane] + CCn1cc[n+](C)c1.N#CN=C=[N-] is greater than or equal to 3
## Result fulfilled

## Task # check: activity coefficient of CCCCO [butan-1-ol] + CCn1cc[n+](C)c1.N#CN=C=[N-] is greater than or equal to 3
## Result not fulfilled
